This collection of values is drawn from patent US10428083B2.

Molecular target: human adenosine A2b receptor (Homo sapiens (Human))
pKi: −log10 of the molar value.
Reported endpoint: pKi

{"columns": ["Molecule", "Reported endpoint", "Recorded result"],
 "data": [
  ["CCn1c(=O)c2c(C)c(CN3CCNC3=O)sc2n(CC2CCO2)c1=O (single isomer, unassigned; enantiomer 1)", "pKi", 8.28]
]}

----------
Target: human adenosine A2b receptor (Homo sapiens (Human), UniProt P29275)
Sequence (P29275 whole entry): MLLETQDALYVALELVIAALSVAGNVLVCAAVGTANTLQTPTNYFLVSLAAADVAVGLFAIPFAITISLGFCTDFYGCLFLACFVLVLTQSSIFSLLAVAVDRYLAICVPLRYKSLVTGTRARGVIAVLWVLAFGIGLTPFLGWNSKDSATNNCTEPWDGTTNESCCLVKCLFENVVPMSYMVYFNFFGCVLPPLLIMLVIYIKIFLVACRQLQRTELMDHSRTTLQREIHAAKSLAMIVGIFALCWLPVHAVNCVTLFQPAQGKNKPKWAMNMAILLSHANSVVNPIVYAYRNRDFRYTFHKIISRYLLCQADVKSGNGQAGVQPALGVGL
Test: Cellular in vitro reporter gene test for A2b receptor activity (CHO-K1, CRE-luciferase, NECA stimulation)
Type: cell-based
Details: recombinant CHO-K1 cell line, CRE-luciferase reporter, antagonism of EC50 concentration of NECA; in some cases means of several determinations, rounded to two significant figures; read-out: A2b receptor IC50
Experimental: B-1. Cellular In Vitro Tests for Determining A2b Receptor Activity and Adenosine Receptor Selectivity In the case of the A2a and A2b cell lines, this is a minimal promoter having a plurality of cAMP-responsive elements (CRE). Stimulation of the Gs-coupled A2b or A2a receptors by NECA ultimately leads, via formation of cAMP, to CRE-dependent induction of luciferase expression, which is detected 3 hours after the start of the incubation with NECA using a detection solution in a suitable luminometer. […]
Reported endpoint: IC50 (µM)

{"columns": ["Compound", "Reported endpoint", "Recorded result"],
 "data": [
  ["CCn1c(=O)c2c(C)c(CN3CCNC3=O)sc2n(CCC(F)(F)F)c1=O", "IC50", 0.0014],
  ["Cc1c(CN2CCNC2=S)sc2c1c(=O)n(CC(C)C)c(=O)n2CC(F)F", "IC50", 0.003],
  ["Cc1c(CN2CCNC2=NC#N)sc2c1c(=O)n(C(C)C)c(=O)n2CC1CCCO1 (racemic) [Example 267]", "IC50", 0.0046],
  ["CCn1c(=O)c2c(C)c(CN3CCNC3=O)sc2n(CC2CCCO2)c1=O (single isomer, unassigned; enantiomer 2) [Example 70]", "IC50", 0.021],
  ["CCn1c(=O)c2c(C)c(C(C)N3CCNC3=O)sc2n(CCC(F)(F)F)c1=O (single isomer, unassigned) [Example 503]", "IC50", 0.039],
  ["COC(C)Cn1c(=O)c2c(C)c(CN3CCNC(=O)C3=O)sc2n(CCC(F)(F)F)c1=O (single isomer, unassigned) [Example 495]", "IC50", 0.057],
  ["CCn1c(=O)c2c(C)c(Cn3cc[nH]c3=O)sc2n(CCOC)c1=O", "IC50", 0.0042],
  ["Cc1c(CN2CCNC2=O)sc2c1c(=O)n(CC(C)C)c(=O)n2CC1CCOC1 (racemic)", "IC50", 0.012],
  ["CCn1c(=O)c2c(C)c(CN3CC(C)NC3=S)sc2n(CCOC)c1=O (racemic)", "IC50", 0.046],
  ["CCOCCn1c(=O)c2c(C)c(CN3CCNC3=O)sc2n(CCOC)c1=O", "IC50", 0.04],
  ["Cc1c(CN2CCNC(=O)C2=O)sc2c1c(=O)n(C(C)C)c(=O)n2CC1CCO1 (single isomer, unassigned) [Example 398]", "IC50", 0.24],
  ["COC(C)(C)Cn1c(=O)c2c(C)c(CN3CCNC3=O)sc2n(CCCF)c1=O", "IC50", 0.017],
  ["Cc1c(CN2CCNC2=O)sc2c1c(=O)n(CC(C)C)c(=O)n2CC1CCO1 (single isomer, unassigned) [Example 196]", "IC50", 0.0065],
  ["COCCn1c(=O)c2c(C)c(Cn3[nH]ccc3=O)sc2n(CC2CCCO2)c1=O (single isomer, unassigned) [Example 290]", "IC50", 0.4],
  ["CCn1c(=O)c2c(C)c(Cn3ncn(CC(O)CO)c3=O)sc2n(CCOC(F)(F)F)c1=O (racemic)", "IC50", 0.031]
]}

----------
Biological target: human adenosine A2b receptor (Homo sapiens (Human), UniProt P29275)
Experiment: Cellular in vitro reporter gene test for A2b receptor activity (CHO-K1, CRE-luciferase, NECA stimulation)
Type: cell-based
Settings: recombinant CHO-K1 cell line, CRE-luciferase reporter, antagonism of EC50 concentration of NECA; in some cases means of several determinations, rounded to two significant figures; read-out: A2b receptor IC50
Protocol: B-1. Cellular In Vitro Tests for Determining A2b Receptor Activity and Adenosine Receptor Selectivity In the case of the A2a and A2b cell lines, this is a minimal promoter having a plurality of cAMP-responsive elements (CRE). Stimulation of the Gs-coupled A2b or A2a receptors by NECA ultimately leads, via formation of cAMP, to CRE-dependent induction of luciferase expression, which is detected 3 hours after the start of the incubation with NECA using a detection solution in a suitable luminometer. […]
Reported endpoint: IC50

{"columns": ["Compound", "Tgt", "Reported endpoint", "Recorded result"],
 "data": [
  ["COC(=O)N=C1NCCN1Cc1sc2c(c1C)c(=O)n(CC(C)(C)C)c(=O)n2CCC(F)(F)F", "human adenosine A2b receptor (Homo sapiens (Human), UniProt P29275)", "IC50", "9.2 nM"],
  ["COC(C)Cn1c(=O)c2c(C)c(CN3CCNC(=O)C3=O)sc2n(CCC(F)(F)F)c1=O (single isomer, unassigned) [Example 494]", "human adenosine A2b receptor (Homo sapiens (Human), UniProt P29275)", "IC50", "20 nM"],
  ["CCn1c(=O)c2c(C)c(Cn3nc[nH]c3=O)sc2n(CC2CCCO2)c1=O (racemic) [Example 419]", "human adenosine A2b receptor (Homo sapiens (Human), UniProt P29275)", "IC50", "130 nM"],
  ["Cc1c(CN2CCNC(=O)C2=O)sc2c1c(=O)n(C(C)C(F)(F)F)c(=O)n2CCC(F)(F)F (racemic)", "human adenosine A2b receptor (Homo sapiens (Human), UniProt P29275)", "IC50", "19 nM"],
  ["CCOCCn1c(=O)n(CC(C)C)c(=O)c2c(C)c(CN3CCNC(=O)C3=O)sc21", "human adenosine A2b receptor (Homo sapiens (Human), UniProt P29275)", "IC50", "47 nM"],
  ["COC(=O)N=C1NCCN1Cc1sc2c(c1C)c(=O)n(CC(F)(F)F)c(=O)n2CC1CCCO1 (single isomer, unassigned) [Example 469]", "human adenosine A2b receptor (Homo sapiens (Human), UniProt P29275)", "IC50", "8.8 nM"],
  ["CCn1c(=O)c2c(C)c(CN3CCNC(=O)C3=O)sc2n(CCOC2CCCC2)c1=O", "human adenosine A2b receptor (Homo sapiens (Human), UniProt P29275)", "IC50", "94 nM"],
  ["CCn1c(=O)c2c(C)c(CN3CCCC3=O)sc2n(CCC(F)(F)F)c1=O", "human adenosine A2b receptor (Homo sapiens (Human), UniProt P29275)", "IC50", "5.2 nM"],
  ["Cc1c(CN2CCNC2=O)sc2c1c(=O)n(CC(F)F)c(=O)n2CCCF", "human adenosine A2b receptor (Homo sapiens (Human), UniProt P29275)", "IC50", "11 nM"],
  ["COCCn1c(=O)n(C(C)COC)c(=O)c2c(C)c(CN3CCNC3=O)sc21 (single isomer, unassigned) [Example 331]", "human adenosine A2b receptor (Homo sapiens (Human), UniProt P29275)", "IC50", "61 nM"],
  ["COCCn1c(=O)n(CC(C)(C)C)c(=O)c2c(C)c(CN3CCNC3=NC#N)sc21", "human adenosine A2b receptor (Homo sapiens (Human), UniProt P29275)", "IC50", "12 nM"],
  ["COC(=O)N=C1NCCN1Cc1sc2c(c1C)c(=O)n(CC(C)OC)c(=O)n2CCC(F)(F)F (single isomer, unassigned) [Example 474]", "human adenosine A2b receptor (Homo sapiens (Human), UniProt P29275)", "IC50", "5.6 nM"],
  ["CCn1c(=O)c2c(C)c(CN3CCNC3=S)sc2n(CCCCF)c1=O", "human adenosine A2b receptor (Homo sapiens (Human), UniProt P29275)", "IC50", "5 nM"],
  ["CCn1c(=O)c2c(C)c(CN3CCCS3(=O)=O)sc2n(CCOC)c1=O", "human adenosine A2b receptor (Homo sapiens (Human), UniProt P29275)", "IC50", "16 nM"],
  ["[2H]C([2H])(c1sc2c(c1C)c(=O)n([C@H](C)C(F)(F)F)c(=O)n2CCOC)N1CCNC1=O", "human adenosine A2b receptor (Homo sapiens (Human), UniProt P29275)", "IC50", "43 nM"],
  ["CCOCCn1c(=O)n(CC)c(=O)c2c(C)c(CN3CCNC3=O)sc21", "human adenosine A2b receptor (Homo sapiens (Human), UniProt P29275)", "IC50", "13 nM"],
  ["Cc1c(Cn2nc[nH]c2=O)sc2c1c(=O)n(CC(C)(C)C)c(=O)n2CC1CCCO1 (single isomer, unassigned) [Example 430]", "human adenosine A2b receptor (Homo sapiens (Human), UniProt P29275)", "IC50", "280 nM"],
  ["CCn1c(=O)c2c(C)c(CN3CCCS3(=O)=O)sc2n(CCC(F)(F)F)c1=O", "human adenosine A2b receptor (Homo sapiens (Human), UniProt P29275)", "IC50", "2.7 nM"],
  ["CCn1c(=O)c2c(C)c(CN3CCOCC3=O)sc2n(CCC(F)(F)F)c1=O", "human adenosine A2b receptor (Homo sapiens (Human), UniProt P29275)", "IC50", "19 nM"],
  ["CCn1c(=O)c2c(C)c(CN3CCCOC3=O)sc2n(CCC(F)(F)F)c1=O", "human adenosine A2b receptor (Homo sapiens (Human), UniProt P29275)", "IC50", "5.7 nM"],
  ["COCCn1c(=O)n(CC(C)OC)c(=O)c2c(C)c(CN3CCNC3=O)sc21 (single isomer, unassigned) [Example 235]", "human adenosine A2b receptor (Homo sapiens (Human), UniProt P29275)", "IC50", "38 nM"],
  ["Cc1c(CN2CCNC2=O)sc2c1c(=O)n(CC(F)(F)F)c(=O)n2CC1CCO1 (single isomer, unassigned) [Example 207]", "human adenosine A2b receptor (Homo sapiens (Human), UniProt P29275)", "IC50", "43 nM"],
  ["COC(C)Cn1c(=O)c2c(C)c(CN3CCNC3=O)sc2n(CCC(F)(F)F)c1=O (single isomer, unassigned) [Example 414]", "human adenosine A2b receptor (Homo sapiens (Human), UniProt P29275)", "IC50", "11 nM"],
  ["Cc1c(Cn2[nH]ccc2=O)sc2c1c(=O)n(C(C)C)c(=O)n2CC1CCCO1 (racemic) [Example 134]", "human adenosine A2b receptor (Homo sapiens (Human), UniProt P29275)", "IC50", "30 nM"],
  ["COC(=O)N=C1NCCN1Cc1sc2c(c1C)c(=O)n(CC(C)(C)C)c(=O)n2CC1CCCO1 (racemic) [Example 463]", "human adenosine A2b receptor (Homo sapiens (Human), UniProt P29275)", "IC50", "9.9 nM"],
  ["COCCn1c(=O)c2c(C)c(CN3CCNC3=NC#N)sc2n(CC2CCO2)c1=O (racemic) [Example 364]", "human adenosine A2b receptor (Homo sapiens (Human), UniProt P29275)", "IC50", "170 nM"],
  ["Cc1c(CN2CCNC2=O)sc2c1c(=O)n(CC(F)(F)F)c(=O)n2CC1COC1", "human adenosine A2b receptor (Homo sapiens (Human), UniProt P29275)", "IC50", "17 nM"],
  ["Cc1c(CN2CCNC2=S)sc2c1c(=O)n(CC(F)F)c(=O)n2CC1CCCO1 (racemic) [Example 162]", "human adenosine A2b receptor (Homo sapiens (Human), UniProt P29275)", "IC50", "7.9 nM"],
  ["COCCn1c(=O)c2c(C)c(CN3CCNC(=O)C3=O)sc2n(CC2CCCO2)c1=O (racemic)", "human adenosine A2b receptor (Homo sapiens (Human), UniProt P29275)", "IC50", "130 nM"],
  ["CCn1c(=O)c2c(C)c(CN3CCNC3=NC#N)sc2n(CCOC)c1=O", "human adenosine A2b receptor (Homo sapiens (Human), UniProt P29275)", "IC50", "5.2 nM"]
]}
